target-or-test-system: T1, Pdr3p DBD (Saccharomyces cerevisiae, UniProt P33200 1-184)
T1 sequence: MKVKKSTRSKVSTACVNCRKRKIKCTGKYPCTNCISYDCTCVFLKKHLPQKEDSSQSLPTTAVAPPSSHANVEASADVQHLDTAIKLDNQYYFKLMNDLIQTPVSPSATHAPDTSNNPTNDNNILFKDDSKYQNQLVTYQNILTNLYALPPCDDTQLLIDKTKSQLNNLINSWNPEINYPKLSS
test-details: fluorescence polarization
observed-property: pKd
pKd is a log-scale quantity: -log10 of the concentration expressed in molar.

# get_value(readout='pKd', item= PBM half site 18mer (dsDNA) DNA 1: AAAAGTTCCGGAACAACC DNA 2: GGTTGTTCCGGAACTTTT )
6.93
